measured.on: α1 adrenergic receptor
experiment.summary: Displacement of specific binding of [3H]prazosin from rat forebrain membranes
test.parameters: 0.2 nM [3H]prazosin, affinity defined as IC50 for displacement of specific binding
pIC50: −log10 of the molar value.

compound: Cc1cc([C@@H](O)[C@@H](C)N2CCC(O)(c3ccc(F)cc3)CC2)ccc1O (relative stereo)
qualifying.sign: =
pIC50: 5.00
--
compound: COc1cc([C@H](O)[C@H](C)N2CCC(O)(c3ccccc3)CC2)ccc1O
qualifying.sign: =
pIC50: 5.09
--
compound: C[C@@H]([C@@H](O)c1ccc(O)cc1)N1CCC(O)(c2ccccc2)CC1
qualifying.sign: =
pIC50: 4.71
--
compound: OC(CN1CCC(Cc2ccc(F)cc2)CC1)c1ccc(Cl)cc1 (centres unmarked) [Eliprodil, reference compound]
qualifying.sign: =
pIC50: 6.01
--
compound: Oc1ccc2c(c1)OC[C@@H](N1CCC(O)(c3ccc(F)cc3)CC1)[C@H]2O
qualifying.sign: <
pIC50: 5.00
